SYSTEM: MMP 1 (Homo sapiens, UniProt P03956)
Construct: human recombinant fibroblast collagenase (truncated, mw= 18,828, WAR, Radnor)
METHOD SUMMARY: In Vitro Collagenase Assay
Type: biochemical
MEASUREMENT SETUP: human recombinant fibroblast collagenase; read-out: MMP 1 IC 50
PROPERTY LABEL: pIC50
Numbers only, as −log10 of the molar value.

COc1ccc(S(=O)(=O)C(CC=C(C)C)(Cc2ccc(OCCN3CCOCC3)cc2)C(=O)NO)cc1 (centres unmarked) [Example 24] :: 6.38
CCCC(Cc1ccc(OCCN2CCOCC2)cc1)(C(=O)NO)S(=O)(=O)c1ccc(OC)cc1 (centres unmarked) [Example 35] :: 6.34
CCCCCCC(Cc1ccc(OCCN2CCCCCC2)cc1)(C(=O)NO)S(=O)(=O)c1ccc(OC)cc1 (centres unmarked) [Example 36] :: 6.21
COc1ccc(S(=O)(=O)C(CC=C(C)C)(Cc2cccnc2)C(=O)NO)cc1 (centres unmarked) [Example 63] :: 6.81
CCCCC[C@H](C(=O)NO)[S@+]([O-])c1ccc(OC)cc1 (stereo in doubt) [Example 81a] :: 5.69

# map each compound to its pIC50
1. CCCCC(Cc1ccc(OCCN(CC)CC)cc1)(C(=O)NO)S(=O)(=O)c1ccc(OC)cc1 (centres unmarked) [Example 27]
2. CCCC(Cc1ccc(OCCN2CCCCCC2)cc1)(C(=O)NO)S(=O)(=O)c1ccc(OC)cc1 (centres unmarked) [Example 19]

a:
1. 6.20
2. 6.35

q: I am curious: what pIC50 value has been reported for COc1ccc(S(=O)(=O)C2(C(=O)NO)CCN(C(C)C)CC2)cc1 [Example 96] ?
a: 5.35

###

Assignment: determine reported IC50 for the given compounds.
SYSTEM: MMP 9 (Homo sapiens)
Construct: from tissue; host or cells: human neutrophils
METHOD SUMMARY: In Vitro Gelatinase Assay
Assay type: biochemical
MEASUREMENT SETUP: human neutrophil gelatinase B; read-out: MMP 9 IC 50
One number for each entry, in nM.

Previously resolved entries follow.
CCCC(Cc1ccc(OCCN2CCCCCC2)cc1)(C(=O)NO)S(=O)(=O)c1ccc(OC)cc1 (centres unmarked) [Example 19] :: 95.8
COc1ccc(S(=O)(=O)C(C)(CC=Cc2ccccc2)C(=O)NO)cc1 (centres unmarked) [Example 56] :: 16

# map each compound to its IC50
1. COc1ccc(S(=O)(=O)C(Cc2cccnc2)(CC(C)C)C(=O)NO)cc1 (centres unmarked) [Example 66]
2. CCN(CC)CCOc1cccc(CC(C)(C(=O)NO)S(=O)(=O)c2ccc(OC)cc2)c1 (centres unmarked) [Example 29]
3. COc1ccc(S(=O)(=O)C(C)(Cc2ccccc2Br)C(=O)NO)cc1 (centres unmarked) [Example 55]
4. COc1ccc(S(=O)(=O)C(C)(Cc2ccc(OCCCN3CCN(c4cccc(Cl)c4)CC3)cc2)C(=O)NO)cc1 (centres unmarked) [Example 23]
5. CCCCCC#CCC(CC#CCCCCC)(C(=O)NO)S(=O)(=O)c1ccc(OC)cc1 [Example 71]
6. COc1ccc(S(=O)(=O)C2(C(=O)NO)CCN(Cc3ccc(F)cc3)CC2)cc1 [Example 99]

a:
131
4.3
10
7.9
63
16.2

###

SYSTEM: MMP 9 (Homo sapiens, UniProt P14780)
Construct: from tissue; host or cells: human neutrophils
Sequence (P14780 94-707): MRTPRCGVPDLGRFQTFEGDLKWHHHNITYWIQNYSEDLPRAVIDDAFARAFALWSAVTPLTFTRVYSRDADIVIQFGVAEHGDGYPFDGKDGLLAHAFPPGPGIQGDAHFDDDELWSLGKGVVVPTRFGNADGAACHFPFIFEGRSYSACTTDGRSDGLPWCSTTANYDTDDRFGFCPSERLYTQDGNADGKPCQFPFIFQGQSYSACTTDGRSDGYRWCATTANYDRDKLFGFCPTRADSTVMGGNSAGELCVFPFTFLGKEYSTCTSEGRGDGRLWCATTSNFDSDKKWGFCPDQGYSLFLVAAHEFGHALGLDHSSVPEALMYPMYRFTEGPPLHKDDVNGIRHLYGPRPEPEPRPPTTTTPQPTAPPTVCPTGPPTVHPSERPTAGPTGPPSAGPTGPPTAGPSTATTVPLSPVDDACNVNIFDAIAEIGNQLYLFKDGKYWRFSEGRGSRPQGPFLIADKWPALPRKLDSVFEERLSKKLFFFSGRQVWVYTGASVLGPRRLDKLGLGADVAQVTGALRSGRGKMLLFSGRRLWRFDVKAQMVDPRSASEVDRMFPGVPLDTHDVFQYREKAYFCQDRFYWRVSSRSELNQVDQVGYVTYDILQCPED
METHOD SUMMARY: In Vitro Gelatinase Assay
Format: biochemical
MEASUREMENT SETUP: read-out: MMP 9 % inhibition at 1 micromolar; 1 micromolar; human neutrophil gelatinase B
PROPERTY LABEL: inhibition at 1 µM (%)
Numbers only, in %.

Previously resolved entries follow.
CCCCCC(Sc1ccc(OC)cc1)C(=O)NO (stereo not shown) :: 26
Cc1occc1S(=O)(=O)C(C)(Cc1ccc(OCCN2CCCCC2)cc1)C(=O)NO (stereo not shown) :: 36.9
Cn1ccnc1S(=O)(=O)C(C)(Cc1ccc(-c2ccccc2)cc1)C(=O)NO (stereo not shown) :: 12.9

# map each compound to its inhibition at 1 µM
1. CC(C(=O)O)S(=O)(=O)CCCCCCCCS(=O)(=O)C(C)C(=O)NO (stereo not shown)
2. CCCCCCC(Sc1ccc(F)cc1)C(=O)NO (stereo not shown)
3. COc1ccc(SC(C(=O)NO)C(C)C)cc1 (stereo not shown)
4. Cc1occc1S(=O)(=O)C(C)(Cc1ccccc1)C(=O)NO (stereo not shown)

a:
1: 23.7; 2: 1.7; 3: 22.2; 4: 34.7

###

SYSTEM: MMP 1 (Homo sapiens)
Construct: human recombinant fibroblast collagenase (truncated, mw= 18,828, WAR, Radnor)
METHOD SUMMARY: In Vitro Collagenase Assay
Format: biochemical
MEASUREMENT SETUP: read-out: MMP 1 % inhibition at 1 micromolar; 1 micromolar; human recombinant fibroblast collagenase
Assignment: determine reported inhibition at 1 µM for the given molecules.
Respond with a number, then the unit of measure.

Previously resolved entries follow.
CC(C(=O)O)S(=O)(=O)CCCCCCCCS(=O)(=O)C(C)C(=O)NO (stereo not shown) [Example 49] :: 10.1%
COc1ccc(S(=O)(=O)C2(C(=O)NO)CCN(C(C)(C)C)CC2)cc1 [Example 92] :: 59.6%
CCCCCCC(Sc1ccc(F)cc1)C(=O)NO (stereo not shown) [Example 38] :: 48.3%

# map each molecule to its inhibition at 1 µM
1. CC(Cc1ccccc1)(C(=O)NO)S(=O)(=O)c1cccs1 (stereo not shown) [Example 48]
2. CCCCCCC(Sc1ccc(OC)cc1)C(=O)NO (stereo not shown) [Example 37]
3. CCCCCC(Sc1ccc(OC)cc1)C(=O)NO (stereo not shown) [Example 80]
4. CCCCCCCCCCCCC(C(=O)NO)S(=O)(=O)c1ccc(OC)cc1 (stereo not shown) [Example 11]
5. Cn1ccnc1S(=O)(=O)C(C)(Cc1ccc(-c2ccccc2)cc1)C(=O)NO (stereo not shown) [Example 47]

a:
1. 99.1%
2. 9%
3. 22.1%
4. 18.8%
5. 17.1%

# map each molecule to its inhibition at 1 µM
1. CCCCCCC(Sc1nccn1C)C(=O)NO (stereo not shown) [Example 39]
2. Cc1occc1S(=O)(=O)C(C)(Cc1ccccc1)C(=O)NO (stereo not shown) [Example 43]

a:
1: 29.4%; 2: 66.1%

###

Assignment: determine reported pIC50 for the given compounds.
SYSTEM: TACE (Homo sapiens)
Construct: purchased Immunex
Sequence (P78536 215-824): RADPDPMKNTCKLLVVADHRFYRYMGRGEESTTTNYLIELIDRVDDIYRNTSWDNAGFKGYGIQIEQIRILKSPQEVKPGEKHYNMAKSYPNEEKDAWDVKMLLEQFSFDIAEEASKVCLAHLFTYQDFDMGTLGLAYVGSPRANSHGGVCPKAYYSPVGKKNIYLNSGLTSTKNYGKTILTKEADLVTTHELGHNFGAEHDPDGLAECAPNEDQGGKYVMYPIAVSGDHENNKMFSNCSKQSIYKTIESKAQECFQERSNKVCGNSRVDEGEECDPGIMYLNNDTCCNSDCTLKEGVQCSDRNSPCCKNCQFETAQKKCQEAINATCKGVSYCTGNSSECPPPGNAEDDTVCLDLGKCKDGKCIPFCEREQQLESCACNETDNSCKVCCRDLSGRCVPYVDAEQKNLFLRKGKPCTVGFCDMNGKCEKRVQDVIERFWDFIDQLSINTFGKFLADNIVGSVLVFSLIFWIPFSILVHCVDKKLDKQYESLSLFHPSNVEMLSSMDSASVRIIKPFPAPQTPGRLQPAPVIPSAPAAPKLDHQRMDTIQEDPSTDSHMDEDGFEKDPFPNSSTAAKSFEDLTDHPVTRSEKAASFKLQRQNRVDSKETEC
METHOD SUMMARY: Procedure for Measuring TACE Inhibition
Type: biochemical
MEASUREMENT SETUP: read-out: TACE IC 50
Numbers only, as −log10 of the molar value.

Previously resolved entries follow.
CCCCCC(Sc1ccc(OC)cc1)C(=O)NO (stereo not shown) [Example 80] :: 6.72
COc1ccc(S(=O)(=O)C2(C(=O)NO)CCN(CCOc3ccccc3)CC2)cc1 [Example 107] :: 6.53
COc1ccc(S(=O)(=O)C(C)(CC2CCCCC2)C(=O)NO)cc1 (stereo not shown) [Example 16] :: 6.74
COc1ccc(S(=O)(=O)C2(C(=O)NO)CCN(Cc3ccc(Cl)c(Cl)c3)CC2)cc1 [Example 85] :: 6.94
CCCCOc1ccc(S(=O)(=O)C2(C(=O)NO)CCN(Cc3ccc(OC)cc3)CC2)cc1 [Example 104] :: 6.68

# map each compound to its pIC50
1. COc1ccc(S(=O)(=O)C2(C(=O)NO)CCN(Cc3ccc(OCCN4CCCCC4)cc3)CC2)cc1 [Example 109]
2. CCCCCCC(Cc1ccc(OCCN2CCCCCC2)cc1)(C(=O)NO)S(=O)(=O)c1ccc(OC)cc1 (stereo not shown) [Example 36]
3. CCCCCCCCCCCCC(C(=O)NO)S(=O)(=O)c1ccc(OC)cc1 (stereo not shown) [Example 11]
4. COc1ccc(S(=O)(=O)C(C)(CC=C(C)CCC=C(C)C)C(=O)NO)cc1 (stereo not shown) [Example 15]
5. COc1ccc(S(=O)(=O)C2(C(=O)NO)CCN(Cc3ccc(F)cc3)CC2)cc1 [Example 99]
6. COc1ccc(CN2CCC(C(=O)NO)(S(=O)(=O)c3ccc(OC)cc3)CC2)cc1 [Example 101]

a:
1: 6.41; 2: 6.08; 3: 6.03; 4: 6.86; 5: 6.60; 6: 6.71

###

Assignment: determine reported pIC50 for the given compounds.
SYSTEM: MMP 1 (Homo sapiens, UniProt P03956)
Construct: human recombinant fibroblast collagenase (truncated, mw= 18,828, WAR, Radnor)
Sequence (P03956 100-269 limits assumed): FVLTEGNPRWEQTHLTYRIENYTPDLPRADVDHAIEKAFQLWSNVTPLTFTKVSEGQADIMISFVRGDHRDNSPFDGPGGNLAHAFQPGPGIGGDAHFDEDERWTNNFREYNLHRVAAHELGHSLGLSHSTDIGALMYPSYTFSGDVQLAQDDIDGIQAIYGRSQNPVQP
METHOD SUMMARY: In Vitro Collagenase Assay
Type: biochemical
MEASUREMENT SETUP: human recombinant fibroblast collagenase; read-out: MMP 1 IC 50
Answers are plain numbers, as −log10 of the molar value.

COc1ccc(S(=O)(=O)C(C)(CC=C(C)C)C(=O)NO)cc1 (stereo not drawn) [Example 13] :: 6.62
COc1ccc(S(=O)(=O)C(C)(CC2CCCCC2)C(=O)NO)cc1 (stereo not drawn) [Example 16] :: 6.49
CC#CCC(CC#CC)(C(=O)NO)S(=O)(=O)c1ccc(OC)cc1 [Example 72] :: 6.93

# map each compound to its pIC50
1. COc1ccc(S(=O)(=O)C(C)(Cc2cccc(OCCN3CCOCC3)c2)C(=O)NO)cc1 (stereo not drawn) [Example 30]
2. COc1ccc(S(=O)(=O)C2(C(=O)NO)CCN(Cc3cccc(OC)c3)CC2)cc1 [Example 84]
3. CCN(CC)CCOc1cccc(CC(C)(C(=O)NO)S(=O)(=O)c2ccc(OC)cc2)c1 (stereo not drawn) [Example 29]
4. CCCCCC#CCC(Cc1cccnc1)(C(=O)NO)S(=O)(=O)c1ccc(F)cc1 (stereo not drawn) [Example 77]
5. COc1ccc(S(=O)(=O)C2(C(=O)NO)CCN(Cc3ccccc3)CC2)cc1 [Example 83]

a:
6.40
6.28
6.53
6.69
6.31

q: Short answer please: pIC50, MMP 1 (Homo sapiens, UniProt P03956), entry C#CCC(Cc1cccnc1)(C(=O)NO)S(=O)(=O)c1ccc(OC)cc1 (stereo not drawn) [Example 75]
a: 6.17
